B1: ZNF263 (parent)
chain: CSECGESFSRSSRLMSHQRTHTG

- Variants of: B1
- method description: protein stability index of a GFP-peptide fusion (GPS, HEK-293T) (PSI 1-6); higher = more stable;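 note: lentivirally expressed fusions sorted by FACS into six bins by GFP to DsRed ratio, PSI derived from sequencing read proportions per bin multiplied by bin number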
- stated conditions: c terminus: native
protein stability index values, listed per item
experimental readout: protein stability index

# mutant designation, test result
data = [
    ("S2V", 3.85),
    ("Q18H", 2.57),
    ("F8T", 2.04),
    ("C4Q", 1.53),
    ("S9G", 2.23),
    ("H17L", 1.38),
    ("S11D", 2.1),
    ("L14Y", 2.98),
    ("S2H", 2.35),
    ("G5R", 1.4),
    ("C4E", 1.8),
    ("E3G", 1.71),
    ("E3H", 2.56),
    ("R10A", 2.98),
    ("R13H", 4.79),
    ("G5H", 1.64),
    ("M15I", 3.54),
    ("R19T", 3.76),
    ("S16C", 3.1),
    ("H21E", 2.15),
    ("Q18C", 2.5),
    ("T22W", 2.25),
    ("T22A", 2.03),
    ("S7C", 2.67),
    ("C4R", 1.15),
    ("S2W", 2.21),
    ("R13K", 4.19),
    ("T20D", 3.75),
    ("T20K", 3.72),
    ("S16A", 3.8),
    ("H21L", 2.52),
    ("T20I", 4.43),
    ("E6D", 1.89),
    ("E6I", 2.15),
    ("T22Y", 2.25),
    ("E3I", 4.09),
    ("G23C", 3.33),
    ("M15K", 3.97),
    ("H17A", 1.44),
    ("G23V", 3.56),
    ("S2A", 2.4),
    ("S7P", 2.63),
    ("S11M", 4.29),
    ("E3R", 2.12),
    ("E6C", 2.52),
    ("R13F", 3.48),
    ("T22N", 2.29),
    ("C4A", 1.56),
    ("C1F", 1.49),
    ("S12P", 2.06),
    ("T20F", 2.48),
    ("E3D", 2.67),
    ("H21F", 2.47),
    ("C1N", 2.31),
    ("R13Y", 3.6),
    ("H17N", 1.57),
    ("C4K", 1.42),
    ("S12Q", 2.38),
    ("S12H", 2.66),
    ("F8E", 3.32),
    ("S11R", 2.31),
    ("S11H", 3.47),
    ("G23L", 4.69),
    ("S11P", 4.22),
    ("S12I", 2.4),
    ("C1M", 2.22),
    ("C1R", 2.32),
    ("T20G", 2.96),
    ("S7Q", 3.41),
    ("G23F", 3.74),
    ("Q18D", 2.58),
    ("H21S", 2.74),
    ("S9W", 2.84),
    ("C1T", 2.06),
    ("C1V", 1.59),
    ("F8P", 1.91),
    ("F8N", 1.92),
    ("C4I", 1.74),
    ("F8C", 2),
    ("G5A", 2.77),
    ("R19K", 5.13),
    ("G5Q", 2.03),
    ("S11K", 3.55),
    ("S12A", 2.13),
    ("H21N", 2.4),
    ("S9H", 2.99),
    ("R10N", 4.99),
    ("R13G", 3.3),
    ("S12C", 3.76),
    ("G5Y", 2.33),
    ("S16R", 3.69),
]
